Listing: protein stability index of selected variants
B1: ATL3 (parent)
chain: QELEEEIKELYENFCKHNGSKNVF

- Variants of: B1
- TEST_DESCRIPTION: protein stability index of a GFP-peptide fusion (GPS, HEK-293T) (PSI 1-6); higher = more stable;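 also: lentivirally expressed fusions sorted by FACS into six bins by GFP to DsRed ratio, PSI derived from sequencing read proportions per bin multiplied by bin number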
- CONDITION_SET: c terminus: a fixed tail appended
MEASUREMENT_NAME: protein stability index

1) N22E 2.38
2) L10H 4.33
3) E9I 1.95
4) E12H 2.81
5) Q1F 2.09
6) H17C 2.65
7) K16F 3.11
8) E6M 2.19
9) N13H 2.83
10) N18R 2.86
11) N13M 1.79
12) E5A 1.96
13) F24D 2.38
14) N18E 2.36
15) G19I 2.99
